Target: CYP2C9 (Homo sapiens, UniProt P11712)
Sequence (P11712 whole entry): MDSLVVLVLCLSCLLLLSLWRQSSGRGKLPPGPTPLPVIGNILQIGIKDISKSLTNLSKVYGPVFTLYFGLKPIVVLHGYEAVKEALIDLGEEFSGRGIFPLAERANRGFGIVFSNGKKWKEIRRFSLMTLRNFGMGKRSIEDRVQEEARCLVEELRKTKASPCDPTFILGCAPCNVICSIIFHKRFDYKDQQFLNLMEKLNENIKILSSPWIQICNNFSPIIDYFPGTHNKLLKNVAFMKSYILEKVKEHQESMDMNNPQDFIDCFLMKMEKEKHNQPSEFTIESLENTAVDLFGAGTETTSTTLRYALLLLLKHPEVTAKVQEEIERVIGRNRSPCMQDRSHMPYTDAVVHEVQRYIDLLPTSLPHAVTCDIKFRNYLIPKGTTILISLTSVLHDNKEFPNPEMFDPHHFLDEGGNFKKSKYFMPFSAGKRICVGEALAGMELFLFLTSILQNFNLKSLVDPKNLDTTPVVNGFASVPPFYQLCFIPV
Assay: Inhibition of CYP2C9 in human liver microsomes using diclofenac as substrate at 10 uM after 10 mins
Type: ADME, Microsome
Conditions: probe diclofenac
OUTCOME_MEASURE: inhibition at 10 min, 10 µM (%)

INSERT INTO results (structure_string, recorded_measurement) VALUES
  ('Cc1ccn2c(C(=O)NCc3ncc(C(F)(F)F)cc3Cl)c(C)nc2c1', 11.5);

* * *

Assay: Tmax in Balb/c mouse at 100 mg/kg, po
Format: ADME, organism-based
Design: dose 100 mg/kg, route oral
Details: in vivo
OUTCOME_MEASURE: Tmax

INSERT INTO measurements (structure_string, outcome_measure, recorded_measurement) VALUES
  ('Cc1ccn2c(C(=O)NCc3ncc(C(F)(F)F)cc3Cl)c(C)nc2c1', 'Tmax', '2 h');

* * *

Experiment: Half life in Balb/c mouse at 3 mg/kg, po
Format: ADME, organism-based
Parameters: dose 3 mg/kg, route oral
Conditions: in vivo
OUTCOME_MEASURE: half-life (h)

INSERT INTO assay_data (structure_string, outcome_measure, recorded_measurement) VALUES
  ('Cc1ccn2c(C(=O)NCc3ncc(C(F)(F)F)cc3Cl)c(C)nc2c1', 'half-life', 5);

* * *

Test: Clearance in Balb/c mouse at 1 mg/kg, iv
Assay type: ADME, organism-based
Design: dose 1 mg/kg, route intravenous
Conditions: in vivo
OUTCOME_MEASURE: clearance (mL/min/kg)

INSERT INTO results (structure_string, outcome_measure, units_label, recorded_measurement) VALUES
  ('Cc1ccn2c(C(=O)NCc3ncc(C(F)(F)F)cc3Cl)c(C)nc2c1', 'clearance', 'mL/min/kg', 43.1);

* * *

Assay: Drug metabolism in human liver microsomes at 2 uM after 30 mins by LC-MS analysis
Assay type: ADME, Microsome
Conditions: read-out: Drug metabolism
OUTCOME_MEASURE: metabolised at 0.5 h, 2 µM (%)

INSERT INTO assay_data (structure_string, recorded_measurement) VALUES
  ('Cc1ccn2c(C(=O)NCc3ncc(C(F)(F)F)cc3Cl)c(C)nc2c1', 0);

* * *

Experiment: Drug metabolism in dog liver microsomes at 2 uM after 30 mins by LC-MS analysis
Type: ADME, Canis lupus familiaris, Microsome
Details: read-out: Drug metabolism
OUTCOME_MEASURE: metabolised at 0.5 h, 2 µM (%)

INSERT INTO assay_data (structure_string, outcome_measure, recorded_measurement) VALUES
  ('Cc1ccn2c(C(=O)NCc3ncc(C(F)(F)F)cc3Cl)c(C)nc2c1', 'metabolised at 0.5 h, 2 µM', 41.2);

* * *

Test: Drug metabolism in mouse liver microsomes at 2 uM after 30 mins by LC-MS analysis
Format: ADME, Microsome
Details: read-out: Drug metabolism
OUTCOME_MEASURE: metabolised at 0.5 h, 2 µM (%)

INSERT INTO assay_data (structure_string, recorded_measurement) VALUES
  ('Cc1ccn2c(C(=O)NCc3ncc(C(F)(F)F)cc3Cl)c(C)nc2c1', 79.9);

* * *

Test: Half life in Balb/c mouse at 10 mg/kg, po
Format: ADME, organism-based
Parameters: dose 10 mg/kg, route oral
Conditions: in vivo
OUTCOME_MEASURE: half-life

INSERT INTO assay_data (structure_string, recorded_measurement) VALUES
  ('Cc1ccn2c(C(=O)NCc3ccc(Oc4ccc(F)cc4)cc3)c(C)nc2c1', '13.2 h');

* * *

Assay: Drug metabolism in rat liver microsomes at 2 uM after 30 mins by LC-MS analysis
Type: ADME, Microsome
Conditions: read-out: Drug metabolism
OUTCOME_MEASURE: metabolised at 0.5 h, 2 µM (%)

INSERT INTO assay_data (structure_string, outcome_measure, units_label, recorded_measurement) VALUES
  ('Cc1ccn2c(C(=O)NCc3ccccc3)c(C)nc2c1', 'metabolised at 0.5 h, 2 µM', '%', 71),
  ('Cc1ccn2c(C(=O)NCc3ncc(C(F)(F)F)cc3Cl)c(C)nc2c1', 'metabolised at 0.5 h, 2 µM', '%', 19.3);
